target of assay: purified recombinant CDC25C enzyme (MBP-CDC25C protein) (Homo sapiens, UniProt P30307)
Construct: made in house
measurement notes: Phosphatase activity of the purified recombinant CDC25C enzyme (OMFP dephosphorylation, fluorescence)
Assay type: biochemical
recorded conditions: OMFP 500 μM, 4 hours at 30° C., three independent experiments; nested upper bounds; read-out: IC50 for the phosphatase activity of the purified recombinant CDC25-C enzyme
readout name: IC50

As a guide, the following entries are already answered.
# structure, IC50
data = [
    ("O=c1c(NCCNc2cc(N3CCCC3)nc(N3CCCC3)n2)c(Nc2ccc(Cl)c(F)c2)c1=O", "≤ 1000 nM"),
    ("O=c1c(NCCNc2cc(N3CCCC3)nc(N3CCCC3)n2)c(Nc2ccc3c(c2)OCO3)c1=O", "≤ 1000 nM"),
    ("CC(C)(C)OC(=O)NCc1ccc(Nc2c(NCCNc3cc(N4CCCC4)nc(N4CCCC4)n3)c(=O)c2=O)cc1", "≤ 1000 nM"),
    ("O=c1c(NCCNc2cc(N3CCCC3)nc(N3CCCC3)n2)c(Nc2ccccc2Cl)c1=O", "≤ 1000 nM"),
    ("O=c1c(NCCNc2cc(N3CCCC3)nc(N3CCCC3)n2)c(Nc2ccc(Cl)cc2)c1=O", "≤ 1000 nM"),
    ("O=c1c(NCCNc2cc(N3CCCC3)nc(N3CCCC3)n2)c(N2CCCCC2)c1=O", "≤ 5000 nM"),
    ("O=c1c(NCCNc2cc(N3CCCC3)nc(N3CCCC3)n2)c(Nc2ccc(C3CCCCC3)cc2)c1=O", "≤ 5000 nM"),
    ("COc1cccc(Nc2c(NCCNc3cc(N4CCCC4)nc(N4CCCC4)n3)c(=O)c2=O)c1", "≤ 5000 nM"),
]

Now look at this one.
Input: Could you share which IC50 value was measured for "O=c1c(NCCNc2cc(N3CCCC3)nc(N3CCCC3)n2)c(Nc2ccc(C(F)(F)F)cc2)c1=O" ?
Output: ≤ 1000 nM

----------
What melting point was measured for each of the following?

# structure, melting point
data = [
    ("O=c1c(NCCNc2cc(N3CCCC3)nc(N3CCCC3)n2)c(Nc2ccc(Cl)cc2)c1=O", "251 to 253 °C"),
]

Report melting point for each item below.
1. O=c1c(NCCNc2cc(N3CCCC3)nc(N3CCCC3)n2)c(Nc2ccc(Cl)c(C(F)(F)F)c2)c1=O
2. CC(=O)c1ccc(Nc2c(NCCNc3cc(N4CCCC4)nc(N4CCCC4)n3)c(=O)c2=O)cc1

Output:
1: 216 to 218 °C; 2: 186 to 188 °C

----------
target of assay: purified recombinant CDC25C enzyme (MBP-CDC25C protein) (Homo sapiens)
Sequence (P30307 1-473): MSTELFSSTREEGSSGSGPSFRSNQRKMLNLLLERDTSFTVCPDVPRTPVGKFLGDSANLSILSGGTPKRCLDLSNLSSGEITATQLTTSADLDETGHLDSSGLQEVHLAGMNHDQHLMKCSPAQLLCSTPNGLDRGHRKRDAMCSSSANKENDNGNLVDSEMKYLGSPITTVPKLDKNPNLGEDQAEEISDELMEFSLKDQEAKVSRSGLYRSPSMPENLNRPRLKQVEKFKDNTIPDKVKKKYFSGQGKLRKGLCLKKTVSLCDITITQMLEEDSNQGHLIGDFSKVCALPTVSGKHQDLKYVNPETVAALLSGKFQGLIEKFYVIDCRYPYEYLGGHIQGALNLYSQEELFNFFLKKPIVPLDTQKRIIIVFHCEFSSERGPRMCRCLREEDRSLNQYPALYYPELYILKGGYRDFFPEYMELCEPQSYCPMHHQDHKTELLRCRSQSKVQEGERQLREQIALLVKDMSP
measurement notes: Phosphatase activity of the purified recombinant CDC25C enzyme (OMFP dephosphorylation, fluorescence)
recorded conditions: OMFP 500 μM, 4 hours at 30° C., three independent experiments; nested upper bounds; read-out: IC50 for the phosphatase activity of the purified recombinant CDC25-C enzyme
readout name: IC50

As a guide, the following entries are already answered.
# compound, IC50
measured = [
    ("O=c1c(NCCNc2cc(N3CCCC3)nc(N3CCCC3)n2)c(Nc2ccccc2)c1=O [Example 35]", "≤ 1000 nM"),
    ("Cl.NCCc1ccc(Nc2c(NCCNc3cc(N4CCCC4)nc(N4CCCC4)n3)c(=O)c2=O)cc1 [Example 30, hydrochloride]", "≤ 5000 nM"),
]

Report IC50 for each item below.
1. CC(C)(C)OC(=O)NCCc1ccc(Nc2c(NCCNc3cc(N4CCCC4)nc(N4CCCC4)n3)c(=O)c2=O)cc1 [Example 29]
2. CN(Cc1ccc(Nc2c(NCCNc3cc(N4CCCC4)nc(N4CCCC4)n3)c(=O)c2=O)cc1)C(=O)OC(C)(C)C [Example 21]
3. O=c1c(NCCNc2cc(N3CCCC3)nc(N3CCCC3)n2)c(Nc2ccc(-c3ccccc3)cc2)c1=O [Example 11]
4. CN(CCNc1cc(N2CCCC2)nc(N2CCCC2)n1)CCNc1c(Nc2ccc(Cl)cc2)c(=O)c1=O [Example 8]

Output:
["≤ 1000 nM", "≤ 1000 nM", "≤ 5000 nM", "≤ 5000 nM"]

Report IC50 for each item below.
1. O=c1c(NCCNc2cc(N3CCCC3)nc(N3CCCC3)n2)c(Nc2ccc([N+](=O)[O-])cc2)c1=O [Example 34]
2. O=c1c(NCCNc2cc(N3CCCC3)nc(N3CCCC3)n2)c(Nc2cc(F)cc(F)c2)c1=O [Example 15]

Output:
≤ 1000 nM
≤ 1000 nM
